Test: soluble on expression in E. coli; label from the status in PepcDB or PDB records

>  <ORDERED RESIDUES>
AHHHHHHGSIDDLVERMRKGDRRAVARLITLVENDEKKAREIIKRIYPLTGNAYIVGITGPPGSGKSTLVDKLVKEARKEGLIVGVIAVDPTSPFTGGALLGDRIRMQDHATDPGVFIRSMATRGSLGGLAKATNDAIKILDAYGCDIIFVETVGVGQVEVDIVKTADTVVLVTVPGLGDDIQAIKAGLMEIADIFVLNKADREGADATYFELSLTLDLESEKWEKLGWRPPIVETVATLGKGIKELWEQIKRHREFLEKSGKLEEKKRLRVEEEIKTIVSDMIAKKVEVSIKAGNLEDILEKVMKKELDPYSAASLIMEKIIGGGKSV

>  <soluble on expression in E. coli>
soluble

$$$$
>  <ORDERED RESIDUES>
SANSGCKDVTGPDEESFLYFAYGSNLLTERIHLRNPSAAFFCVARLQDFKLDFGNSQGKTSQTWHGGIATIFQSPGDEVWGVVWKMNKSNLNSLDEQEGVKSGMYVVIEVKVATQEGKEITCRSYLMTNYESAPPSPQYKKIICMGAKENGLPLEYQEKLKAIEPNDYTGKVSEEIEDIIKKGETQTL

>  <soluble on expression in E. coli>
soluble

$$$$
>  <ORDERED RESIDUES>
MDEQAVSTSMKTVYIRIYTSVLYTSYTKPGNWSAVDRSAWSVSCSNVYADDDAKYGAHLAIDGEINTTWFTWGVANAGECWWNTVLDRPVTLTGFSVTKQSAYGSGYNLRSAEIKVRKEGETEWVTYPRVLTFRNFKGADPQYAAIEPPIPNVKEFRINCLTPDNYTGFAEINLYVKQLEHHHHHH

>  <soluble on expression in E. coli>
soluble

$$$$

---

Experiment: soluble on expression in E. coli; label from the status in PepcDB or PDB records
MEASURE NAME: soluble on expression in E. coli

Sample answers from the record:
>  <ORDERED RESIDUES>
MSDAAKPDRPDEALVLEYDFDAPPAKVWRAVTIPALRERWSPDCDLAGAEPESTIAGEEVRYRLRDSEPPFRESHVIFRIEPNEDGGTRFRIIQQACDDLAKLPQPANTNCRLMMAALEHHHHHH

>  <soluble on expression in E. coli>
soluble

$$$$
>  <ORDERED RESIDUES>
MGSEQNDSTSFTQSQASEPKLCVKGCGFFGSPSNMDLCSKCYRGICAEEAQTAVAKAAVEKSFKPSPPRSLFIAEPPAVVVEPKPEKAAVVVVSAEPSSSAVPEANEPSRPARTNRCLCCNKKVGIMGFKCKCGSTFCGEHRYPETHDCSFDFKEVGRGEIAKANPVVKADKIQRF

>  <soluble on expression in E. coli>
soluble

$$$$
>  <ORDERED RESIDUES>
MTGMSERERQVMKKLKEVVDKQRDEIRAKDRELGLKNEDVEALQQQQTRLMKINHDLRHRVTVVEAQGKALIEQKVELEADLQTKEQEMGSLRAELGKLRERLQGEHSQNGEEEPETEPVGEESISDAEKVAMDLKDPNRPRFTLQELRDVLHERNELKSKVFLLQEELAYYKSEEMEEENRIPQPPPIAHPRTSPQPESGIKRLFSFFSRDKKRLANTQRNVHIQESFGQWANTHRDDGYTEQGQEALQHL

>  <soluble on expression in E. coli>
not soluble

$$$$
>  <ORDERED RESIDUES>
MGHHHHHHSHMRKNESYLNQPAPPIPIPTLSLMGGCREHFENHWKGRARWLMPVIPALWEAKAGRSPEVRSSKPAWPTWRNPIFTKNTKISQVLELFLNYQSLICALEKQKRQKGSLAIFCWSFQGGCVSKRPDVPSLKSQKPKRKRITGRKRLSKGSWSLLFSNLGRF

>  <soluble on expression in E. coli>
soluble

$$$$
>  <ORDERED RESIDUES>
MARKKQFDYFGELNQLATNAYEAAKVLQEIVDNYSLENLVKKSEAIHQLEKENDEIVRKILNELYISFITPIDREDIVDITDHLDNIIDSINSLSYLLDHLVVEEMIAPALELTAYIVKATEGVKSATKEFAKFKNSKTLVSLIDEVNTIESQGDKLYSSAMKDLMTNEKDLLKVIKWKDVYDQLERTINDCESAVNIIVGIVIKNTLEHHHHHH

>  <soluble on expression in E. coli>
soluble

$$$$

Report soluble on expression in E. coli for "MSASESDLAIVAEQLGREPRGVIEVSYHTPDGVPGVVMTTPKLDDGTPFPTLYYLTEPRLTAEASRLEVAHVMKWMTDRLHSDEELRQDYERAHEYFLAKRNALEDLGTDFSGGGMPDRVKCLHVLIAYALAEGPDHFRLGTEAVALAADHGGLRGTAIPQDWPTVESLGMSLDQFDFSHADVPGASK" please.
not soluble

Try this sequence next: "MGSDKIHHHHHHMADTFLFRVHRSQILPALNAVFEAVDPRSNIPILQNVLLSPNAERLRLSGTNMTVEVETSCDLLESASGNPLTLSGKALLDIVKSFSEVAEIEFSFDDLRGQVRVKSGRSRFLLATLHADQFPTIASLASGKSVAVDMPSLISAIARVKYALFDHKDRAYLSGIFIHPEEGENKIAVVAADGHNLAVVRFPCEAGTTFPGAIIPIKAIDAIRRLFGETKASAQVKISDEMIQICCHDVRLTSKLIDAVYPDYDVAIPKDNTSRIIVDAKHLINAVHRVCLVKKDDKRDTIKLVGSNGMLQVSMAATDGEEAVEEIAAEYNGPQIRIGFNGDYLKDALSSIKTTDVAINLLTESSPGLLTPTVGTDELYVVYPRVLPHD"
not soluble

Try this sequence next: "MGSDKIHHHHHHMKIAIITFFDNGNYGSELQTLAMNDYLNAKGHVTVFCKVKSSNKIIRAIELLYDKVLLKWYKITDKEKRQYLTDRAKNLSSQRNIPPKLRQYIHSFVNSHISFGCISRLLLFRKERFDAYICGSDQIWSALKMPLLPLNFLYGIDKKKKIAYAPSIGLDNPPYYYIREVEKYVKDFIYLSVREEDAKNVLKKQYGIEAMQVLDPTLLQGKGFWDSLLAIESKQVPTKPYVFCYFLGKLNEDIVTCINRIANGKCVMVLPYEEDCDLIKNGKYELADPLDFVNLIKHADYVLTDSFHGSIFSILYDKQFVVTKRTHVRRVSQTSRITSLLKIFNLQSQYCSGVDEIINALQNNIDYSFTHIQLEEEQRKSRLFLDGALNEIEKNIKS"
not soluble

Try this sequence next: "SVCAEAYNPDEEEDDAESRIIHPKTDDQRNRLQEACKDILLFKNLDPEQMSQVLDAMFEKLVKEGEHVIDQGDDGDNFYVIDRGTFDIYVKCDGVGRCVGNYDNRGSFGELALMYNTPRAATITATSPGALWGLDRVTFRRIIVKNNAKKRKMYESFIESLPFLKSLEVSERLKVVDVIGTKVYNDGEQIIAQGDSADSFFIVESGEVRITMKRKGKSDIEENGAVEIARCLRGQYFGELALVTNKPRAASAHAIGTVKCLAMDVQAFERLLGPCMEIMKRNIATYEEQLVALFGTNMDIVEPTA"
soluble

Try this sequence next: "MAAQIPIVAATSTPAVARNSKKRPASPSHNSSGGGYGASKKKKLSASGFAQGVSIEAMNESKMASSELSSGPVEKAAKPLPFKDPNFVHSGHGGAVAGKKNRTWKNLKQILAAERALPWQLNDPNYFSIDAPPSFKPAKKYSDISGLLANYTDPQSKLRFSTVEEFSYIRRLPSDVVTGYLALRKATSIVP"
not soluble

Try this sequence next: "EWALFLDIDGTLVDIAEQPHDVRVAASLPQDLARLADRLGGALALVTGRRVDWIDAHFGPHLFPAAGLHGVERRRASGELDRAGLAPSLNALRKDLGRRTARMPGVLLEDKVAAVALHYRQAPEREPDVRAMMEMALKVMGDGWVLQHGKMVVELRPASANKGTALEAFLTEPPFAGRRPVAIGDDVTDEEMFRVVNACGGLSVRICETEAPTLARARLASPQALRDLVAELGA"
not soluble

Try this sequence next: "MGSDKIHHHHHHMTNTIPNWIKLNNEIMIQKDGKYQFEKDKEAVHSYFVDYINQNTVFFHDLKEKLDYLIKNDYYEEEFLSKYTFEQIKSIYKIAYSYKFRFPSFMSAFKFYNDYALKTNDKTKILERYEDRVSIVALYCADGDYEKAVEEVHTMMKQEYQPATPTFLNAGRKRRGEMVSCFLLEVGDSLNDISRAIDISMQLSKLGGGVALNLNKLRAKGEAIKDVENATKGVVGVMKLLDNAFRYADQMG"
not soluble

These entries and their values trace back to the DeepSol protein solubility set.
